B1: library; numbered along this chain (parent)
chain: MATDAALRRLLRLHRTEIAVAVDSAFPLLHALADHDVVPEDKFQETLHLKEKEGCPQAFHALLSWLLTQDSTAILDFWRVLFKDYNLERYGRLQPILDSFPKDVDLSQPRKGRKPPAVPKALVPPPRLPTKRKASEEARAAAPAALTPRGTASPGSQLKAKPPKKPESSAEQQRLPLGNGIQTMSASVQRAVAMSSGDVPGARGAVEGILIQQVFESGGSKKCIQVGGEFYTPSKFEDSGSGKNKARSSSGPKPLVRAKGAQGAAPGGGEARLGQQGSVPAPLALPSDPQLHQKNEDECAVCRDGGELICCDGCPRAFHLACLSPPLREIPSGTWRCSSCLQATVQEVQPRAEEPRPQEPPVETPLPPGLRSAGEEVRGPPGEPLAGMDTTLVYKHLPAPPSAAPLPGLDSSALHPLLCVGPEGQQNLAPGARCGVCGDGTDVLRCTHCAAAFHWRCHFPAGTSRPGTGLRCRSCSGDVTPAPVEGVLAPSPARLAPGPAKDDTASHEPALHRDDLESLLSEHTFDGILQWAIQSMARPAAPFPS

variants of: B1; assay: AIRE transcriptional activation functional score (insulin promoter-GFP; nonsense median 0, synonymous median 1) (normalised score); higher = higher AIRE activity (more reporter activation); conditions: with insulin promoter-GFP reporter in HEK293
Mark not met for AIRE transcriptional activation functional score values under 1, and met for everything at or above.

mutation_spec | cat
A186G | not met
E237T | not met
V479W | met
D4Q | not met
R113G | not met
S402K | not met
S24E | not met
L106Y | met
A404F | met
P125E | not met
V226S | not met
P154T | met
R316F | not met
E347K | met
R12W | not met
I224S | not met
L273E | not met
Q358S | met
E270C | met
A343R | not met
A264G | met
P166I | met
D105G | not met
P101I | not met
G267V | met
P126H | not met
L418K | not met
P109F | met
G91E | met
P350M | met
R356M | met
S135V | not met
V436C | met
L409C | not met
A429W | met
L177I | not met
V479L | not met
V279R | met
A134F | met
D288K | not met
D84G | not met
D478H | not met
P252V | met

Entry source: the supplement of paper PMC12667976
